- TEST DETAILS: chemical genetic growth profiling, strain panel (AID 1159580);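 also: tested at 20 µM; growth read once vehicle control cultures reached saturation at 30 °C; 1 = growth at the plate median or of vehicle wells; lower values mean less growth of the strain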
- CONDITION LABEL: S. cerevisiae deletion strains, growth OD, locus YKR026C, strain gcn3, hits give low values
In all, about 5,500 compounds went through this assay and about 2,000 (36%) were called active. Roughly 18% stayed inconclusive and do not appear here. The list shows a part of the results.
READOUT NAME: normalized growth

Example cases with answers are listed next.
Cc1c(O)c(O)cc2c1CC=C1[C@@]2(C)CC[C@@]2(C)C3C[C@](C)(C(=O)O)CC[C@]3(C)CC[C@]12C (stereo partly drawn) : 0.804 (active)
NCCCC[C@H](N[C@@H](CCc1ccccc1)C(=O)O)C(=O)N1CCC[C@H]1C(=O)O : 1.04 (inactive)

Next item in the queue.
[in] Quick check: normalized growth of CO[C@H]1/C=C/O[C@@]2(C)Oc3c(C)c(O)c4c(O)c(c(/C=N/N5CCN(C)CC5)c(O)c4c3C2=O)NC(=O)/C(C)=C\C=C\C(C)[C@H](O)[C@@H](C)[C@@H](O)[C@@H](C)[C@@H](OC(C)=O)[C@@H]1C (stereo partly drawn) ?
[out] 1.03 (inactive)
